Item-by-item account of recombinant UMI read abundance (log10)
assay remarks: recombinant UMI read abundance after kanamycin selection (control-corrected) (log10(CPM+1)); higher = more efficient recombination; extreme values may be limits of the assay; sequences stand for … in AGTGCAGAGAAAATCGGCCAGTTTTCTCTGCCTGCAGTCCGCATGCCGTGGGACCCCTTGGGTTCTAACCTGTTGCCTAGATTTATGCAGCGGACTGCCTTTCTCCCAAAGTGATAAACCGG…AGGTTGGTTTCACT; site = the 11-nt donor

sequence content | recombinant UMI read abundance (log10)
ACAGTGTCATGGACCGGTTTTCCCGGTAATCCGTATTTGCC (site ACAGTATCTTG) | 2.05
CTTCTCTCATGGACCGGTTTTCCCGGTAATCCGTATTTGAA (site CTTCTCTCTTA) | 0
TAAGCTGCATGGACCGGTTTTCCCGGTAATCCGTATTTGAG (site TAAGCTGCTCT) | 1.32
GTTCGCGCATGGACCGGTTTTCCCGGTAATCCGTATTTGCA (site GTTCGTGCTTG) | 0.00559
ACAGAGACATGGACCGGTTTTCCCGGTAATCCGTATTTGCG (site GCAGAGACTCG) | 1.18
ATTCATACATGGACCGGTTTTCCCGGTAATCCGTATTTGTT (site ATTCATACTAA) | 0.291
TGGACGGCATGGACCGGTTTTCCCGGTAATCCGTATTTGGC (site TGGACGGCTGC) | 1.89
GTTGTTCCATGGACCGGTTTTCCCGGTAATCCGTATTTGCT (site GTTGTTCCTAC) | 0.0126
GCAAATTCATGGACCGGTTTTCCCGGTAATCCGTATTTGTA (site GCAAATTCTTA) | 1.32

----------
Item-by-item account of recombinant UMI read abundance (log10)
assay remarks: recombinant UMI read abundance after kanamycin selection (control-corrected) (log10(CPM+1)); higher = more efficient recombination; extreme values may be limits of the assay; sequences stand for … in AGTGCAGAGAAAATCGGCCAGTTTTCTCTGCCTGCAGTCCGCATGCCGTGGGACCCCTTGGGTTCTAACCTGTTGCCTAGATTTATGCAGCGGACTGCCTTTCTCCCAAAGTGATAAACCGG…AGGTTGGTTTCACT; site = the 11-nt donor

sequence content | recombinant UMI read abundance (log10)
AACTATGCATGGACCGGTTTTCCCGGTAATCCGTATTTGGA (site AAATATGCTTC) | 0.502
CATATCCCATGGACCGGTTTTCCCGGTAATCCGTATTTGCG (site CATATCCCTCG) | 0.847
AAAGATCCATGGACCGGTTTTCCCGGTAATCCGTATTTGCC (site AAAGATCCTGG) | 0
CCATCTTCATGGACCGGTTTTCCCGGTAATCCGTATTTGCT (site CCATCTTCTAG) | 0.0559
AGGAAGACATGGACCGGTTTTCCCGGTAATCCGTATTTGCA (site AGTTAGACTTG) | 1
CAATCTACATGGACCGGTTTTCCCGGTAATCCGTATTTGTC (site CAATCTACTGA) | 2.28

----------
assay remarks: recombinant barcode read abundance after kanamycin selection (control-corrected) (log10(CPM+1)); higher = more efficient recombination; sequences stand for … in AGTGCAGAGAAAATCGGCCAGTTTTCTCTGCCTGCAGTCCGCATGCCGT…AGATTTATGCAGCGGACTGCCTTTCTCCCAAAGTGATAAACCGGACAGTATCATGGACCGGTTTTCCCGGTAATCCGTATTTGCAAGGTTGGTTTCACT; site = the 11-nt target
test readout: recombinant barcode read abundance (log10)

sequence content | measurement
GAAGAGTCTTGGGTTCTAACCTGTTGCCT (site GTAGAGTCTAG) | 1.29
CTCTAGTCTTGGGTTCTAACCTGTTGCCT (site CTCTAGTCTAT) | 0.526
CCTACGCCTTGGGTTCTAACCTGTTGCCA (site CCTACGCCTTG) | 0.842
AGGACAACTTGGGTTCTAACCTGTTGCCT (site AGCACAACTAG) | 0.155
AACAGTGCTTGGGTTCTAACCTGTTGCCT (site AACAATGCTAG) | 0.248
GGAGCCTCTTGGGTTCTAACCTGTTGCTC (site GGGGCCTCTCA) | 0.177
AGTGTCGCTTGGGTTCTAACCTGTTGCGG (site AGTTTCGCTCC) | 0.301
GATAGTACTTGGGTTCTAACCTGTTGCCT (site GATAGTTCTAG) | 0.17
TATGTAGCTTGGGTTCTAACCTGTTGCCC (site TATGTAGCTAG) | 0.226
TGGTACCCTTGGGTTCTAACCTGTTGCCT (site TGTTACCCTAG) | 0.126
TACAGCTCTTGGGTTCTAACCTGTTGCTT (site TACTGCTCTAA) | 0.107
ATGAGGCCTTGGGTTCTAACCTGTTGCCT (site CTGAGGCCTAG) | 0.115
ACTGGGTCTTGGGTTCTAACCTGTTGCGT (site ACTGGGTCTAC) | 2.66
CCGTCATCTTGGGTTCTAACCTGTTGCCT (site CCGTCATCTAG) | 0.108
TCACGGACTTGGGTTCTAACCTGTTGCCT (site TCTCGGACTAG) | 0.101
CGGTGTCCTTGGGTTCTAACCTGTTGCTA (site CGGGGTCCTTA) | 0.225
TACAGACCTTGGGTTCTAACCTGTTGCCT (site AACAGACCTAG) | 0.11
AGCTGGGCTTGGGTTCTAACCTGTTGCGG (site AGTTGGGCTCA) | 0.393
GGAAGTTCTTGGGTTCTAACCTGTTGCCT (site GGAAGTTCTAG) | 0.732
GCTGTATCTTGGGTTCTAACCTGTTGCCT (site CCTGTATCTAG) | 0.163
